# System Under Test: Apelin receptor (Homo sapiens) (UniProt P35414)
# Sequence (P35414 whole entry, looked up): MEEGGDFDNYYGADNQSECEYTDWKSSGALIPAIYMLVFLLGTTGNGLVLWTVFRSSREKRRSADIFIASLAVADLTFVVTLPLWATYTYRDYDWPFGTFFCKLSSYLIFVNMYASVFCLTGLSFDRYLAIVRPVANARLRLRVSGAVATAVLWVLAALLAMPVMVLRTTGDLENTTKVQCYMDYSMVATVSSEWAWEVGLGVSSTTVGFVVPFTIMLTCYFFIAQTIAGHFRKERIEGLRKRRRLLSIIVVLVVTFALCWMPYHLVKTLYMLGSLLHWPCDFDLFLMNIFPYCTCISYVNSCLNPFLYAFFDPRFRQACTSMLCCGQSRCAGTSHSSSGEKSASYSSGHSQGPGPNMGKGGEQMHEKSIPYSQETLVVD
# Protocol Text: apelin receptor activation by small molecules – cell-based, CHO-K1 AGTRL-1, PathHunter luminescence, set 5, SAR follow-up (AID 504524)
# Test Conditions: CHO-K1 AGTRL-1 PathHunter beta-arrestin
Calls of active or inactive are those of the source.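 The calls were made as follows: active = mean EC50 below 10 µM; inactive = the rest.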
Respond only with the outcome that fits, drawn from active, inactive

See these solved cases before continuing.
- Line Notation: "CC1=CC(=O)C(C(C)(C)C)=C/C1=N\\OS(=O)(=O)C1CCCCC1"
  Answer Label: "inactive"
- Line Notation: "CC1=CC(=O)C(C2CCCCC2)=C/C1=N\\OS(=O)(=O)c1cn(C)cn1"
  Answer Label: "active"
- Line Notation: "CC1=CC(=O)C(C(C)C)=C/C1=N\\OS(=O)(=O)C1CCCCC1"
  Answer Label: "inactive"
- Line Notation: "COc1cccc(S(=O)(=O)O/N=C2\\C=C(C3CCCCC3)C(=O)C=C2C)c1"
  Answer Label: "active"

Next:
# fetch the recorded call for CC1=CC(=O)C(C(C)(C)C)=C/C1=N/OS(=O)(=O)c1cccc(C#N)c1 here
active

Each recorded value in this set is attributed to PubChem BioAssay AID504524.
